Just for reference, patent US20170204184A1 is where these values come from.

molecular target: T1, biotinylated human PD-L1-mFc (human, biotinylated (sites not given)); test: competition ELISA: blocks PD-L1-mFc-biotin binding to coated PD-1-hFc
T1 construct: also called PDL-1-mFc-biotin
T1 sequence (chain, as listed by the source limits assumed): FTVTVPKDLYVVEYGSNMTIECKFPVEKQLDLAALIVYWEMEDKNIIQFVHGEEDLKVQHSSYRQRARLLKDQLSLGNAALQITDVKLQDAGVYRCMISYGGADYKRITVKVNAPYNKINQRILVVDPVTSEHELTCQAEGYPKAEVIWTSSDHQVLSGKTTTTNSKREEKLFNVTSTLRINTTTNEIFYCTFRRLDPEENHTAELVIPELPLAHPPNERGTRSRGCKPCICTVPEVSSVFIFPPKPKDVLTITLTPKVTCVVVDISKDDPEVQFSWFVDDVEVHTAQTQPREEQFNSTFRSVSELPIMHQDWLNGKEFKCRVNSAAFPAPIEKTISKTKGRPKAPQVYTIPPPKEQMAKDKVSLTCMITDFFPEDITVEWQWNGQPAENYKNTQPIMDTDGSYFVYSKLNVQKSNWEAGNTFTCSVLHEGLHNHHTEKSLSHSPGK
measuredMetric: IC50 (mg/L)

>>> valuemeasured("m13C5 (antibody, V domains shown, Murine hybridoma IgG (printed 'mIgG'); also called 13C5-mIgG; 13C5 murine) VH: EVKLVESGGGLVKPGGSLKLSCAASGFIFRSYGMSWVRQTPEKRLEWVASISSGGSTYYPDSVKGRFTISRDNARNILYLQMSSLRSEDTAMYDCARGYDSGFAYWGQGTLVTVSE VL: DIVLTQSPASLAVSLGQRATISCRASQSVSTSSSSFMHWYQQKPGQPPKLLIKYASNLESGVPARFSGSGSGTDFTLNIHPVEEEDTATYYCQHSWEIPYTFGGGTKLEIKR")
0.872
